Kindly state Plant response rating, Pigweed for each of the entries shown.
# System: pigweed (Amaranthus retroflexus)
# MEASUREMENT_NOTES: Test A preemergence
# Format: in vivo
# CONDITION_CONTEXT: 125 g ai/ha, Preemergence; visual injury after approximately 10 d; 0 to 100 scale where 0 is no effect and 100 is complete control
Answers are plain numbers.

The following compounds have reported results that may help.
INSERT INTO assay_data (compound, number) VALUES
  ('Cc1ccc(C2CNC(=O)C2C(=O)Nc2cccc(F)c2F)cc1C(F)(F)F (racemic) [Compound 679]', 0),
  ('Cc1ccc(C2CNC(=O)C2C(=O)Nc2ccccc2F)cc1C(F)(F)F (racemic) [Compound 678]', 0),
  ('O=C1NCC(c2ccnc(C(F)(F)F)c2)C1C(=O)Nc1cccc(F)c1F (racemic) [Compound 514]', 0);

Let's switch to this compound now.
Specify Plant response rating, Pigweed for CN1CC(c2cccc(C(F)(F)F)c2)C(C(=O)Nc2cccc(Cl)c2F)C1=O (stereo not shown) [Compound 574] and stop. 20

###

# System: barnyardgrass (Echinochloa crus-galli)
# MEASUREMENT_NOTES: Test B flooded paddy test
# Format: in vivo
# CONDITION_CONTEXT: Echinochloa crus-galli, Flood, 250 g ai/ha; scale of 0 to 100 where 0 is no effect and 100 is complete control; read-out: Barnyardgrass plant response rating
EXPERIMENTAL_ENDPOINT: pest or weed control at 250 g/ha (%)
Give bare numbers, in %.

The following molecules have reported results that may help.
INSERT INTO results (molecule, system, number) VALUES
  ('Cc1c(F)cccc1NC(=O)[C@H]1C(=O)N(C)C[C@@H]1c1cc(F)cc(Cl)c1 [Compound 978]', 'barnyardgrass (Echinochloa crus-galli)', 65),
  ('CN1C[C@H](c2cccc(COC(F)F)c2)[C@@H](C(=O)Nc2ccccc2F)C1=O [Compound 875]', 'barnyardgrass (Echinochloa crus-galli)', 70),
  ('COc1ccc([C@H]2CN(C)C(=O)[C@@H]2C(=O)Nc2cccc(F)c2F)cc1OC [Compound 853]', 'barnyardgrass (Echinochloa crus-galli)', 70);

Below is a list of molecules. For each, state its recorded pest or weed control at 250 g/ha.
1. Cc1ccc([C@H]2CNC(=S)[C@@H]2C(=O)Nc2cccc(F)c2C)cc1C [Compound 764]
2. CN1C[C@H](c2csc(C(F)(F)F)c2)[C@@H](C(=O)Nc2ccccc2F)C1=O [Compound 958]

1: 50; 2: 55

Below is a list of molecules. For each, state its recorded pest or weed control at 250 g/ha.
1. Cc1cc(F)cc([C@H]2CN(C)C(=O)[C@@H]2C(=O)Nc2ccccc2F)c1 [Compound 850]
2. CSc1ccccc1NC(=O)[C@H]1C(=O)N(C)C[C@@H]1c1cc(F)cc(Cl)c1 [Compound 975]
3. CN1C[C@H](c2cc(F)c(F)c(F)c2)[C@@H](C(=O)Nc2ccccc2F)C1=O [Compound 878]

1: 70; 2: 40; 3: 85

###

Kindly state Plant response rating, Ryegrass, Italian for each of the entries shown.
# System: ryegrass, Italian (Italian ryegrass, Lolium multiflorum)
# MEASUREMENT_NOTES: Test A preemergence
# Format: in vivo
# CONDITION_CONTEXT: 125 g ai/ha, preemergence; visual rating after approx. 10 d; 0 to 100 scale where 0 is no effect and 100 is complete control
One number for each entry.

The following compounds have reported results that may help.
INSERT INTO results (compound, number) VALUES
  ('O=C1NCC(c2cccc(OC(F)(F)C(F)F)c2)C1C(=O)Nc1ccccc1Cl (racemic)', 20),
  ('O=C1NCC(c2cccc(Br)c2)C1C(=O)Nc1cccc(F)c1F (racemic)', 0),
  ('CC(=O)c1ccccc1NC(=O)C1C(=O)NCC1c1cccc(C(F)(F)F)c1 (racemic)', 0);

Let's switch to this compound now.
Specify Plant response rating, Ryegrass, Italian for O=C1NCC(c2ccc(I)cc2)C1C(=O)Nc1ccc(F)cc1F (racemic) and stop. 0

Reference source for all entries: patent US12077503B2
